Each recorded value in this set is attributed to patent US11396496B2.

Target: Kelch domain of KEAP1 (Homo sapiens (Human))
Sequence (Q14145 321-609): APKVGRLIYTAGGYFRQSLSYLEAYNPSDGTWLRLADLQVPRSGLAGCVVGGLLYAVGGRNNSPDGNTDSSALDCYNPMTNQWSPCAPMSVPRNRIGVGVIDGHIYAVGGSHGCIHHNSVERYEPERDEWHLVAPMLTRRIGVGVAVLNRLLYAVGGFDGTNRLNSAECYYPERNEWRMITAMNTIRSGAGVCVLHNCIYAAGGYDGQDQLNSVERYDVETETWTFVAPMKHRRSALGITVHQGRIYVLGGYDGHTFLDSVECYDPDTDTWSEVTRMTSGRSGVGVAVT
Test: Fluorescence anisotropy assay of KEAP1-NRF2 interaction inhibition
Assay type: binding
Conditions: fluorescent NRF2 peptide and Kelch domain of KEAP1, fluorescence anisotropy
measuredQuantity: IC50 (µM)

Below, 3 compounds whose answers are already recorded.
querySmiles	systemUnderTest	unitsSymbol	IC50
COc1ccc(S(=O)(=O)Nc2ccc(/C=C/C(=O)O)c3ccccc23)cc1	Kelch domain of KEAP1 (Homo sapiens (Human))	µM	9.3
COc1ccc(S(=O)(=O)Nc2cnc(N(CC(=O)O)S(=O)(=O)c3ccc(OC)cc3)c3ccccc23)cc1	Kelch domain of KEAP1 (Homo sapiens (Human))	µM	0.212
COc1ccc(S(=O)(=O)Nc2ccc(CCC(=O)O)c3ccccc23)cc1	Kelch domain of KEAP1 (Homo sapiens (Human))	µM	6

[A] COc1ccc(S(=O)(=O)N(C)c2ncc(N(CC(=O)O)S(=O)(=O)c3ccc(OC)cc3)c3ccccc23)cc1
[B] O=C(O)CN(c1cnc(N(CC(=O)O)S(=O)(=O)c2ccc(F)cc2)c2ccccc12)S(=O)(=O)c1ccc(F)cc1
Q: I'd appreciate it if you could identify which of A and B has the greater IC50. Choose, then provide that item's label.
Result: A
